Origin of values: paper PMC8317200

Let's look at some compounds and their measured kon.
- EXPERIMENTAL TARGET: FGF14 (Homo sapiens, UniProt Q92915)
- Sequence (Q92915 64-252 isoform Q92915-2): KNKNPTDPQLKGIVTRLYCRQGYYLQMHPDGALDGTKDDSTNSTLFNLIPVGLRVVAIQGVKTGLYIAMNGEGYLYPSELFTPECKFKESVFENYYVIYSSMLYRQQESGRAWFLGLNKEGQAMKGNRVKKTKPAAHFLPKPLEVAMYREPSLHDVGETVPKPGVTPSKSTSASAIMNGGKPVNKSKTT
- ASSAY NAME: Surface plasmon resonance
- Type: binding
- TEST CONTEXT: read-out: kon FGF14
Residues, ends and D or L forms follow the SMILES beside them. *: point of attachment. Adamantane1carbonyl = O=C(C12CC3CC(CC(C3)C1)C2)*; Pyrrolidide = C1CCN(*)C1; Cbz = O=C(OCc1ccccc1)*; OcHex = C1CCC(O*)CC1; OtBu = CC(C)(C)O*; OAll = C=CCO*
// return numeric value only (unit: M⁻¹ s⁻¹, not printed)

Here's what some known entries look like.
CC(C)C[C@H](NC(=O)[C@@H]1CCCN1C(=O)OCc1ccccc1)C(=O)N[C@@H](CCC(=O)OC(C)(C)C)C(=O)N[C@H](C(=O)N1CCCC1)C(C)C [Compound 19e] (Cbz-PLE(OtBu)V-Pyrrolidide)
461
C=CCOC(=O)[C@@H](NC(=O)[C@H](CCC(=O)OC(C)(C)C)NC(=O)[C@H](CC(C)C)NC(=O)[C@@H]1CCCN1C(=O)C12CC3CC(CC(C3)C1)C2)C(C)C [Compound 23a] (Adamantane1carbonyl-PLE(OtBu)V-OAll)
17900
CCOC(=O)[C@@H](NC(=O)[C@H](CCC(=O)OC(C)(C)C)NC(=O)[C@H](CC(C)C)NC(=O)[C@@H]1CCCN1C(=O)C12CC3CC(CC(C3)C1)C2)C(C)C [Compound 23f] (Adamantane1carbonyl-PLE(OtBu)V-OEt)
217

Could you now look at the following compound, please?
The compound CC(C)C[C@H](NC(=O)[C@@H]1CCCN1C(=O)C12CC3CC(CC(C3)C1)C2)C(=O)N[C@@H](CCC(=O)OC(C)(C)C)C(=O)N[C@H](C(=O)OC1CCCCC1)C(C)C [Compound 23e] (Adamantane1carbonyl-PLE(OtBu)V-OcHex) showed kon equal to 7350
